Tested on: MDA-MB-231;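 also: viability read out with the CCK-8 kit in 96-well plates, screening a set of 303 compounds acting on lipid metabolism targets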
Assay: relative cell viability, compound alone, vs DMSO (fraction of DMSO control); higher = less growth inhibition
Conditions: 72 h
Entries and their relative cell viability values follow.
Property: relative cell viability

{"columns": ["Compound", "Assayed system", "Property", "Recorded measurement"],
 "data": [
  ["CC(c1cc2ccccc2s1)N(O)C(N)=O (centres undefined)", "MDA-MB-231", "relative cell viability", 0.906],
  ["COc1ccc(CN2CCC(c3ccc4nc(C(=O)N5CCN(Cc6ccc(C(F)(F)F)cc6)CC5)[nH]c4c3)CC2)cn1", "MDA-MB-231", "relative cell viability", 0.795],
  ["C=C(C)[C@@H]1CC[C@]2(C)CC[C@]3(C)[C@H](CC[C@@H]4[C@@]5(C)CCC(=O)C(C)(C)[C@@H]5CC[C@]43C)[C@@H]12", "MDA-MB-231", "relative cell viability", 1.08],
  ["O=C(NCCS(=O)(=O)c1ccc(C(F)(F)F)cn1)c1ccc(Cl)cc1", "MDA-MB-231", "relative cell viability", 0.901]
]}
